# studyTarget: Potassium voltage-gated channel subfamily KQT member 1 (Homo sapiens) (UniProt P51787)
# Sequence (P51787 whole entry, looked up): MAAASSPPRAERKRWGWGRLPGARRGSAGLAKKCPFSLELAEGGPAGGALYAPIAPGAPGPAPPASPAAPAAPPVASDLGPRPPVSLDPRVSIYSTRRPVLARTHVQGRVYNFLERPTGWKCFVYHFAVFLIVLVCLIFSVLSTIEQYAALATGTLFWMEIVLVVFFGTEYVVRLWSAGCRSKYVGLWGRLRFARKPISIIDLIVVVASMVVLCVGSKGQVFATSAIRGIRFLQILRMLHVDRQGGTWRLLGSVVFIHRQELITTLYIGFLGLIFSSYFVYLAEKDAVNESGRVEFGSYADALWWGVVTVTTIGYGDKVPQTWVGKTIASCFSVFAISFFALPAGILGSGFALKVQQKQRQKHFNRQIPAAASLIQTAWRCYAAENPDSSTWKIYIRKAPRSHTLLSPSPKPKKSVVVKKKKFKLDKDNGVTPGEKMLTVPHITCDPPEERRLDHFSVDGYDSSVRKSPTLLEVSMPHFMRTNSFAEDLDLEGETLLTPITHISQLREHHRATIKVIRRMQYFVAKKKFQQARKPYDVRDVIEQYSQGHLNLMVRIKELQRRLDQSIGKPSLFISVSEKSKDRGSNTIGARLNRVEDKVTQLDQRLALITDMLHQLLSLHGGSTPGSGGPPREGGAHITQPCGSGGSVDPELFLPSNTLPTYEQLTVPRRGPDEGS
# testSummary: KCNQ1 potassium channel potentiators, confirmation, FluxOR thallium flux, CHO cells, duplicates (AID 493007)
# settings: KCNQ1 cell line, FluxOR thallium flux fluorescence, at 10 µM, % of reference activator effect, buffer zero
The source made the active and inactive calls.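 How the source made its calls: active means potentiation averaged over duplicate wells exceeding buffer-only control mean by more than 3 SD; inactive means the rest.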
Your answer must be one of the following: active, inactive

CCCCOc1ccc(C(=O)Oc2ccc(C)nc2)cc1	inactive
CCCCn1c(N)c(N(CC)C(=O)CSCc2c(C)noc2C)c(=O)[nH]c1=O	inactive
O=c1c2ccccc2nc(-c2cccc(Cl)c2)n1O	active
COCCn1c(=S)[nH]c2sc3c(c2c1=O)CCCC3	active
COc1cc(/C=N/Nc2snc(SC)c2C#N)ccc1O	inactive
CCN1c2ccccc2-c2nc3ccccc3n2C1c1cccnc1 (stereo not drawn)	inactive

Q: What did this assay record as the result for CCCSc1nnc(-c2cnn(-c3ccccc3)c2-n2cccc2)n1C ?
A: inactive

====

# studyTarget: Potassium voltage-gated channel subfamily KQT member 1 (Homo sapiens) (UniProt P51787)
# testSummary: KCNQ1 potassium channel potentiators, confirmation, FluxOR thallium flux, CHO cells, duplicates (AID 493007)
# settings: KCNQ1 cell line, FluxOR thallium flux fluorescence, at 10 µM, % of reference activator effect, buffer zero
The source made the active and inactive calls.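 The calls were made as follows: active = potentiation averaged over duplicate wells exceeding buffer-only control mean by more than 3 SD; inactive = the rest.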
Your answer must be one of the following: True = active, False = inactive

O=c1c2cc(F)ccc2[nH]c(=S)n1Cc1ccc(F)cc1	False
C=CCNC(=S)Nc1nc2c(cc1C(=O)OCC)CCCC2	True
O=C(NC(=S)N1CCN(c2ccc(Cl)cc2[N+](=O)[O-])CC1)c1cccs1	True
Cc1cc(-c2cccnc2)c(C#N)c(SCC#N)n1	False
O=C(CC(=O)c1ccccc1O)c1cccc(F)c1	True

Now examine the next entry.
Q: What did this assay record as the result for CC1CCCCN1C(=S)NC(=O)c1cccs1 (stereo unspecified) ?
A: False

====

# studyTarget: Potassium voltage-gated channel subfamily KQT member 1 (Homo sapiens) (UniProt P51787)
# testSummary: KCNQ1 channel current potentiators, confirmation, orthogonal assay for KCNQ1 potentiator project, IonWorks patch clamp, KCNQ1-CHO cells (AID 493184)
# settings: automated patch clamp current, at 10 µM; active compounds read high
Active and inactive are the calls of the source.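 The calls were made as follows: active = current rise at least 3 SD above the untreated control mean in each of two repeat wells; inactive = the rest.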
attributeMeasured: current potentiation

Guide cases for current potentiation, answers given:
COC(=O)C1CCN(C(=O)Nc2ccc(OC)cc2)CC1	inactive
O=C(O)c1ccccc1NS(=O)(=O)c1cccc(-n2sc3ccccc3c2=O)c1	inactive
Cc1ccc(C2=NOC(=O)/C2=C\C=C\c2ccccc2)cc1	inactive
COc1ccc(CCN2CC(C(=O)Nc3ccc4c(c3)OCO4)CC2=O)cc1OC (stereo not drawn)	inactive
Oc1c(Br)cc(Br)cc1CNc1cccc2cccnc12	inactive
Fc1ccc(/C=N/NC(=S)Nc2ccc(Cl)cc2)cc1F	inactive
CN1CCN(C(c2ccc(Cl)cc2)c2cc(Cl)c3cccnc3c2O)CC1 (stereo not drawn)	inactive
O=C1CC(O)(C(F)(F)F)Oc2c1ccc1ccccc21 (stereo not drawn)	inactive
C=CCN(CC=C)C(=S)NC(=O)Cc1cccc2ccccc12	inactive
COc1ccc(NS(=O)(=O)c2ccc(N/N=C(\C)c3ccncc3)c([N+](=O)[O-])c2)cc1	inactive

Q: Using Potassium voltage-gated channel subfamily KQT member 1 (Homo sapiens) (UniProt P51787) as the test system, report measured current potentiation of O=C(O)c1ccc2c(c1)C(=O)N(c1ccc(Cl)cn1)C2=O .
A: inactive
